Given measured melting point, output True if it is greater than or equal to 80 °C and False if not.

# COMPOUND, CLASS_NAME
rows = [
    ("OCCNCCO", "False"),
    ("CCN1CN(CC)CN(CC)C1", "False"),
    ("CC1CNC(C)CN1 (configuration not stated)", "True"),
    ("CCc1ccccc1CC", "False"),
    ("c1csc(-c2cccs2)c1", "False"),
    ("O=C(OCC(=O)N1CCCCC1)c1ccccc1", "True"),
    ("Brc1cccc(I)c1", "False"),
    ("O=C(O)C(Cc1ccccc1)Cc1ccccc1", "True"),
    ("CCCCCCCCCCCC(=O)OCc1ccccc1", "False"),
    ("CC(=C(CCO)SSC(CCO)=C(C)N(C=O)Cc1cnc(C)nc1N)N(C=O)Cc1cnc(C)nc1N", "True"),
    ("N#CCC(=O)c1ccc(N)cc1", "True"),
    ("CCCC(=O)C(=O)O", "False"),
    ("O=C1c2ccc(O)cc2C(=O)c2cc(O)ccc21", "True"),
    ("CC(C)C(C(C)C)C(C)C", "False"),
    ("O=C1NCCN1c1ncc([N+](=O)[O-])s1", "True"),
    ("O=C(O)C(F)(F)C(F)(F)C(F)(F)C(F)(F)C(F)(F)C(F)F", "False"),
    ("CCCCCCCCCCCCCCCC[N+](C)(C)C.[Br-]", "True"),
    ("CS(C)=O", "False"),
    ("Nn1cnnc1", "True"),
    ("CC(C)=CCC1=C(O)C(=O)c2ccccc2C1=O", "True"),
    ("C=CC(C)(C)CC", "False"),
    ("N#Cc1ccc(Cl)c([N+](=O)[O-])c1", "True"),
    ("BrC1Cc2ccccc2C1Br (configuration not stated)", "False"),
    ("CB(C)N(C)C", "False"),
    ("CC(=O)N=c1sc(S(N)(=O)=O)nn1C", "True"),
    ("COc1cccc(Nc2ccccc2)c1", "False"),
    ("CCCCCCOC(=O)CCC", "False"),
    ("O=C(O)c1cc(Cl)cc(Cl)c1Cl", "True"),
    ("Clc1cccc2nccc(Cl)c12", "True"),
    ("O=C(CO)[C@@H](O)[C@@H](O)[C@H](O)[C@H](O)CO", "True"),
]

====

# melting point listing for each entry below

# COMPOUND, UNITS_OF_MEASURE, melting point
data = [
    ("C[Si]1(c2ccccc2)O[Si](C)(c2ccccc2)O[Si](C)(c2ccccc2)O[Si](C)(c2ccccc2)O1 (stereo not given)", "°C", 99),
    ("O=C(O)C(O)c1ccccc1 (racemic)", "°C", 124),
    ("ClCc1cccc2ccccc12", "°C", 32),
    ("O=C(O)CC(O)C(=O)O (stereo not given)", "°C", 131),
    ("CCOC(=O)c1nc(C(Cl)(Cl)Cl)n(-c2ccc(Cl)cc2Cl)n1", "°C", 110),
    ("C[C@@H]1C[C@@]2(C)[C@@H](CC[C@@H]3[C@@H]2CC[C@]2(C)[C@@H](O)CC[C@@H]32)CC1=O", "°C", 151),
    ("FC(F)=C(F)C(F)=C(F)F", "°C", -132),
    ("N#CSC#N", "°C", 63.5),
    ("CCOc1cccc([N+](=O)[O-])c1", "°C", 36),
    ("C=C(C)C=C(C)C", "°C", -114),
    ("C=CCC1CCCC1", "°C", -111),
    ("Nc1ccc(Cl)cn1", "°C", 137),
    ("O=C(O)c1ccccc1Cc1ccccc1", "°C", 118),
    ("CCc1oc2ccccc2c1C(=O)c1cc(I)c(O)c(I)c1", "°C", 167),
    ("C=C=C(C)C", "°C", -114),
    ("CC1(O)CCCC1", "°C", 36),
    ("CC[N+](C)(CC)CCOC(=O)C(O)(c1ccccc1)C1CCCCC1.[Br-] (stereo not given)", "°C", 192),
    ("Cc1c(C(N)=O)cc([N+](=O)[O-])cc1[N+](=O)[O-]", "°C", 177),
    ("Oc1cccc(-c2ccccc2)c1", "°C", 78),
    ("FC(F)(F)c1ccc(Cl)nc1", "°C", 33),
    ("Cc1cc(C)c2cc(C)ccc2c1", "°C", 12),
    ("CC(C)(Cl)CCC(C)(C)Cl", "°C", 67.5),
    ("CCN(CC)c1ccc(C=NN(c2ccccc2)c2ccccc2)cc1", "°C", 94.5),
    ("N#CCc1cccc2ccccc12", "°C", 32.5),
    ("CCOc1ccccc1C(N)=O", "°C", 133),
    ("C=CCNC(=O)NCC=C", "°C", 91.5),
    ("c1ccc(C2OCCCO2)cc1", "°C", 41),
    ("O=C(O)C=Cc1ccc(Cl)cc1", "°C", 249),
    ("CN(C)S(=O)(=O)N(SC(F)(Cl)Cl)c1ccccc1", "°C", 106),
    ("CC(C)CCC(C)C", "°C", -91),
]

====

Given measured log10 vapour pressure (mmHg), output 1 (yes) if it is greater than or equal to -5 and 0 (no) if not.

# COMPOUND, CLASS_NAME
records = [
    ("FC(F)(F)c1ccc(Cl)c(Cl)c1", "1 (yes)"),
    ("COP(=S)(OC)SCN1C(=O)c2ccccc2C1=O", "0 (no)"),
    ("CCOCCOCCOCC", "1 (yes)"),
    ("CC(C)(N=C=O)c1cccc(C(C)(C)N=C=O)c1", "1 (yes)"),
    ("CC(Cc1ccc(C(C)(C)C)cc1)CN1C[C@@H](C)O[C@@H](C)C1 (single isomer, unassigned)", "1 (yes)"),
    ("Clc1c(Br)c(Br)c2c(c1Br)Oc1c(Br)c(Br)c(Cl)c(Br)c1O2", "0 (no)"),
]

====

MEASUREMENT_LABEL: melting point (°C)

# COMPOUND, UNITS_OF_MEASURE, RECORDED_MEASUREMENT
rows = [
    ("Nc1cc(Cl)cc(Cl)c1", "°C", 52),
    ("O=C1OC2(c3ccccc31)c1cc(Br)c(O)c(Br)c1Oc1c2cc(Br)c(O)c1Br", "°C", 295),
    ("Nc1ncccn1", "°C", 128),
    ("O=C(O)c1cc(Cl)c(Cl)cc1Cl", "°C", 166),
    ("ClCC(Cl)Cl", "°C", -36.6),
    ("CCCCN1CCOCC1", "°C", -57.1),
    ("Nc1ccc2ccccc2c1", "°C", 113),
    ("Brc1ccc(Oc2ccccc2)cc1", "°C", 18.7),
    ("CN(CCCC(=O)c1cccnc1)N=O", "°C", 64),
    ("CCCCCCCNCCCCCCC", "°C", 31.5),
    ("CC(C)CC1Nc2cc(Cl)c(S(N)(=O)=O)cc2S(=O)(=O)N1 (configuration not stated)", "°C", 222),
    ("NC(=O)CCl", "°C", 121),
    ("O=C(Cl)CCCCCCCCC(=O)Cl", "°C", -2.5),
    ("CCOC(=O)CN1CCN(C(=O)/C=C\\c2cc(OC)c(OC)c(OC)c2)CC1", "°C", 96),
    ("O=C(O)CCI", "°C", 81.5),
    ("CCNC(=O)C(C)OC(=O)Nc1ccccc1 (configuration not stated)", "°C", 119),
    ("O=CC=Cc1ccco1", "°C", 54),
    ("CCCCCCCF", "°C", -73),
    ("CC(=O)C(c1ccccc1)c1ccccc1", "°C", 46),
    ("Cc1cc(Cl)ccc1NC(=S)N(C)C", "°C", 175),
    ("Clc1cccc2cc3ccccc3cc12", "°C", 83.5),
    ("NC(=O)CCC/N=C(\\c1ccc(Cl)cc1)c1cc(F)ccc1O", "°C", 134),
    ("C=CC(=O)OC", "°C", -76.5),
    ("COc1cccc(N)c1", "°C", -1),
    ("N#CSCc1ccccc1", "°C", 43),
    ("O=[N+]([O-])c1cc([N+](=O)[O-])c2ccccc2c1O", "°C", 131),
    ("OCc1ccc(Cl)cc1Cl", "°C", 59.5),
    ("O=[N+]([O-])c1c(Cl)c(Cl)c(Cl)c(Cl)c1Cl", "°C", 144),
    ("Cc1cc(=O)cc(C)o1", "°C", 132),
    ("c1ccc(-c2cnc(-c3ccc(-c4ncc(-c5ccccc5)o4)cc3)o2)cc1", "°C", 245),
    ("COS(C)(=O)=O", "°C", 20),
    ("Oc1cccc2sccc12", "°C", 79.8),
    ("Cc1ccc(C=O)c(O)c1", "°C", 60.5),
    ("C=CC1CC=CCC1 (configuration not stated)", "°C", -109),
    ("Clc1cc2c(cc1Cl)Oc1c(Cl)c(Cl)c(Cl)c(Cl)c1O2", "°C", 273),
    ("BrC1CCCCC1", "°C", -56.5),
    ("COc1ccc(N=C=S)cc1", "°C", 18),
    ("COc1ccc(Cl)c(Cl)c1Cl", "°C", 69.5),
    ("CC(=O)c1ccc(C)cc1O", "°C", 21),
    ("C[C@H](CCC(=O)O)[C@H]1CC[C@H]2[C@@H]3CCC4CCCC[C@]4(C)[C@H]3CC[C@]12C (some centres not stated)", "°C", 164),
    ("Cc1cc(C)cc(C(=O)N(NC(=O)c2ccccc2)C(C)(C)C)c1", "°C", 206),
    ("CCCCOC(=O)c1ccc(O)cc1", "°C", 68.5),
    ("O=C(O)C(c1ccc(Cl)cc1)c1ccc(Cl)cc1", "°C", 168),
    ("c1cc2c3c(c4ccc5ccccc5c4cc3c1)CC2", "°C", 174),
    ("O=C(O)/C(F)=C/c1ccccc1", "°C", 158),
    ("CCCCCCC(O)CCC (configuration not stated)", "°C", -11),
    ("O=C1NN(c2ccccc2)C(=O)C1c1ccccc1 (configuration not stated)", "°C", 234),
    ("O=C1c2ccccc2C(=O)c2c1ccc(O)c2O", "°C", 290),
    ("Cn1c(=O)c2[nH]cnc2n(C)c1=O", "°C", 273),
    ("CC(C)(C)N(NC(=O)c1ccccc1)C(=O)c1ccccc1I", "°C", 188),
    ("CCCCOc1ccc(C(=O)OCCN(CC)CC)cc1", "°C", 146),
    ("CCNC(=S)NCC", "°C", 78),
    ("COC(OC)(OC)OC", "°C", -5),
    ("O=C(O)CCCCC(=O)O", "°C", 153),
    ("FC(F)(F)C#CC(F)(F)F", "°C", -117),
    ("CN1CC(C(=O)O)CC1=O (configuration not stated)", "°C", 152),
    ("O=S(=O)(O)OCCOc1ccc(Cl)cc1Cl", "°C", 170),
    ("COc1ccccc1[N+](=O)[O-]", "°C", 10.5),
    ("CCN(CC)c1ccccc1C", "°C", -60),
    ("N=C(Nc1ccccc1)Nc1ccccc1", "°C", 150),
    ("C=C1C(=O)O[C@@H]2C[C@@H](C)[C@@H]3C=CC(=O)[C@@]3(C)[C@@H](O)[C@H]12", "°C", 168),
    ("CCCCCCCCCCCCCCCCC#N", "°C", 34),
]

The reported numbers originate from the OPERA property sets (Mansouri et al. 2018).
